AT2 Receptor (AT2R) (Homo sapiens (Human), UniProt P50052): reported log10 of IC50 for various compounds.
Sequence (P50052 whole entry): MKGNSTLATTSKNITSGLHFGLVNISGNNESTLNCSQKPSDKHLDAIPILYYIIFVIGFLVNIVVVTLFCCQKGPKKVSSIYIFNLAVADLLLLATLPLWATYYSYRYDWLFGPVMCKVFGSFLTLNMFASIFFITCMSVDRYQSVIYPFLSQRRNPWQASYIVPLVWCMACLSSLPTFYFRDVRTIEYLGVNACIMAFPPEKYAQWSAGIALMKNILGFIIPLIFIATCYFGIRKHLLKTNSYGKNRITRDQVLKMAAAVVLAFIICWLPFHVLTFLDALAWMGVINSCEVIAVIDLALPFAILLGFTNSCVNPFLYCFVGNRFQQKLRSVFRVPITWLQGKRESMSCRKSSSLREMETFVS
# values: log10(IC50), units nM

Completed entries (count: 3):
O=C(O)[C@@H]1C2CCC(CC2OCc2ccccc2)N1C(=O)C(c1ccccc1)c1ccccc1 (stereo in doubt) [Compound C283]
1.67
C[C@@H](c1ccccc1)N(C)C(=O)N1[C@H]2CC[C@@H]1[C@@H](C(=O)O)N(C(=O)N(c1ccccc1)c1ccccc1)C2 [Compound C227]
1.26
CCCc1ccc(CN(C)C(=O)N2[C@H]3CC[C@@H]2[C@@H](C(=O)O)N(C(=O)N(c2ccccc2)c2ccccc2)C3)cc1 [Compound C236]
0.79

Query: Kindly indicate its recorded log10 of IC50. Item: CCN(Cc1cc(C)cs1)C(=O)N1[C@H]2CC[C@@H]1[C@@H](C(=O)O)N(C(=O)N(c1ccccc1)c1ccccc1)C2 [Compound C273]
Reply: 1.32

Query: Kindly indicate its recorded log10 of IC50. Item: O=C(O)[C@@H]1[C@H]2CC[C@@H](CN1C(=O)N(c1ccccc1)c1ccccc1)N2C(=O)N(Cc1ccsc1)C1CC1 [Compound C196]
Reply: 0.21

Query: Kindly indicate its recorded log10 of IC50. Item: C=Cc1ccc(CN(C)C(=O)N2[C@H]3CC[C@@H]2[C@@H](C(=O)O)N(C(=O)N(c2ccccc2)c2ccccc2)C3)cc1 [Compound C170]
Reply: 0.59
